Origin of values: the nanobody polyreactivity screen of Harvey et al. (2022)

Experiment: yeast display, Sf9 membrane polyspecificity reagent, FACS + sequencing; frameworks hold sequencing errors
Measured endpoint: polyreactivity (PSR sort gate)

Answered cases to consult:
1) QVQLVESVGGLVQAGGTLRLTCAASGSNFKAYAMRWYRQATGKERELVARIRYRGGSTYNADSVKGRFTISRDNAKNTVFLQMNSLKPEETAVYYCAARLSPYHTDRGDYLGQGTQVTVSS :: high polyreactivity
2) QVQLVESGGGLVQAGGSLRLSCAASGSTFRSYTMGWYRQAPGKERELVAAISGRGGSTYYADSVKGRFTISRDNAKNTVYLQMNSLKPEDTAVYYCAAPYWKRVAWGFDYWGQGTQVTVSS :: high polyreactivity
3) QVQLVESGGGLVQAGGSLRLSCAAAGIISPFYAMGWYRQAPGKERELVADISTGGTTTYADSVKGRFTISRDNAKNTVYLQMNSLKPVDTAVYYCNAEVCLTYYWIVWASYDYWGQGTQVTVSS :: low polyreactivity
4) QVQLVESGGGLVQAGGSLRLSCAASGLTYAYNAMGGSRQAPGKERELVAAISKRGGSTYYADSVKGRFTISRDNAKNTVYLQMNSLKPEDTAVYYCAAGTYAIHDYWGLGTQVTVSS :: high polyreactivity
5) QVQLVESGGGLVQAGGSLRLSCAASGSIFGSYTMGWYRPAPGKERELVAAITSGGGNTYYADSVKGRFTISRDNAKNTVYLQMNSLKPEDTAVYYCAARERYTGYGSWGQGTQVTVSS :: high polyreactivity
6) QVQLVESGGGLVQAGGSLRLSCAASGSIFRANAMGWYRQAPGKERELVAAISYSGGSTYYADSVKGRFTISRDNAKNTVYLQMNTLKPEDTAVYYCAAEFLYASVYYSYWGQGTQVTVSS :: high polyreactivity
7) QVQLVESGGGLVQAGGSLRLSCAASGFTFEIYAMGWYRQAPGKERELVAAITWSGGSTDYADSVKGRFTISRDNAKNSVYFQMNSLKPEDTAVYYCAAVTVQYVGYGYWGQGTQVTVSS :: low polyreactivity
8) QVQLVESGGGLVQAGGSLRLSCAASGITFYYNVMGWYRQAPGKERELVASITSGGSTYYADSVKGRFTISRDNAKNTVYLQMNSLKPEDTAVSYCNKDHALYVDFSYDYWGQGTQVTVSS :: low polyreactivity
9) QLQLVESVGGLDQAGGSLRLSCAASGSIFIRNAIGSYRQAPGKERELVAAISSTGSTYYADSVKGRFTISRDNAKNTVYLQMNSLKPEDTAVYYCADYYTVAMDYWGQGTQVTVSS :: low polyreactivity
10) QVQLVESGGGLVQAGGSLRLICAASGGPFGYYTMGWYRQAPGKERELVAAISSGGGTDYADSVKGRFTISRDNAKNTVYLQMNSLKPEDTAVYYCNAKWLEWHYVFLPSYTMDYWGQGTQVTVSS :: low polyreactivity

Ask | Requested field: polyreactivity (PSR sort gate). Item: QVQLVESGGGLVQAGGSLRLSCAASGIIFEGYAMGWYRQAPGKERELVAGITIGDITYYADSVKGRFTISRDNAKNTVYLQMNSLKPEDTAVYYCAADSYYYQTAYDSWGQGTQVTVSS
Reply | low polyreactivity

Ask | And the next one, QVQLVESGGGLVQAGGSLRLSSAASGSLFDGNAMGWYRQAPGKEREFVAAITSSDGSTSYADSVKGRFTISRDNAKNTVYLQMNSLKPEDTAVYYCNVDDYFWPGAKFDYWGQGSQVTVSS ?
Reply | low polyreactivity

Ask | And the next one, QVQLVESGGGLVQAGGSLRLSCAASGSTFKIYAMGWYRQAPGKERELVAAITRSGGSTYYADSVKGRFTISRDNAKNTVYLQMNSLKPEDTAVYYCAASRFTSYGIDYDYWGQGTQVTVSS ?
Reply | high polyreactivity
